Sourced from patent US10670605B2

# measuredTarget: cysteines in MDA-MB-231 and Ramos cells (Homo sapiens, UniProt Q96T76)
# Sequence (Q96T76 whole entry, the tested form may be a part): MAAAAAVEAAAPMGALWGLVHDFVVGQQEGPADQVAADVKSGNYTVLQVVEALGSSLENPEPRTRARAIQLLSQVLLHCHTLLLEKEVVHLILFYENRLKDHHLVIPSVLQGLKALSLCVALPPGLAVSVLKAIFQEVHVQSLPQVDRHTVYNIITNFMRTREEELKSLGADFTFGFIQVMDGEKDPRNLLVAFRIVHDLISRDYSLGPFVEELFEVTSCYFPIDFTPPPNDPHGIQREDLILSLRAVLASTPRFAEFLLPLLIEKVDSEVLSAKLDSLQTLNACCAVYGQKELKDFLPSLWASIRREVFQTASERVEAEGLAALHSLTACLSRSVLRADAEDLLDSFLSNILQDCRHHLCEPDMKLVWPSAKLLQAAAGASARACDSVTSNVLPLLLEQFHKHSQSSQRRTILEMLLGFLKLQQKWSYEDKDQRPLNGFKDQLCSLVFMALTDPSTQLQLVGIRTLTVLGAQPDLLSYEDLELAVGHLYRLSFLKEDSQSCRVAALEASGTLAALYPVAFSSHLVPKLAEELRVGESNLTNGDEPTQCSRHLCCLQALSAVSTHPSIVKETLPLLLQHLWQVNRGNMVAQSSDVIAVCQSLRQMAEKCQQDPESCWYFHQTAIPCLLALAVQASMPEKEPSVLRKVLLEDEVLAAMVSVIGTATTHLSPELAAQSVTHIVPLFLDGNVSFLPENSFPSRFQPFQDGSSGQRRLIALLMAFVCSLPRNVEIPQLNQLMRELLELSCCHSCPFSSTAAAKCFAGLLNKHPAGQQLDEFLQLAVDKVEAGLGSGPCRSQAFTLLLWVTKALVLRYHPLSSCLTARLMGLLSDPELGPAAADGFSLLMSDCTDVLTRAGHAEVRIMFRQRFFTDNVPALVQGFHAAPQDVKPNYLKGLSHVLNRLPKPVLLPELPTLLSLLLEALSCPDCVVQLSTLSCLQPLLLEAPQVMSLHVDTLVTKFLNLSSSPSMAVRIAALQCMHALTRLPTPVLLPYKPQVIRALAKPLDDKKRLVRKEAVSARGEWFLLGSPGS
# procedureText: Competitive isoTOP-ABPP in situ (fragment-treated cells)
# Format: cell-based
# assayConditions: 200 μM, insitu, 231
quantity: isoTOP-ABPP ratio Q96T76_C819
Please reply with the number alone, leaving off any unit.

{"molecule": "C=CC(=O)N(Cc1cccnc1)c1cc(C(F)(F)F)cc(C(F)(F)F)c1 [compound 31]", "isoTOP-ABPP ratio Q96T76_C819": 20.0}
{"molecule": "C=CC(=O)Nc1cc(F)c(N2CCN(C(=O)OC(C)(C)C)CC2)c(F)c1 [compound 38]", "isoTOP-ABPP ratio Q96T76_C819": 4.6}
{"molecule": "Cc1ccc(C=C(C#N)C(=O)NCCN2CCOCC2)cc1 [compound 41]", "isoTOP-ABPP ratio Q96T76_C819": 0.6}
{"molecule": "CC1CCc2ccccc2N1C(=O)CCl (centres unmarked) [compound 45]", "isoTOP-ABPP ratio Q96T76_C819": 20.0}

# query: isoTOP-ABPP ratio Q96T76_C819 of entry CC(C)CCOCCNC(=O)CCl [compound 27]
0.5

* * *

# measuredTarget: cysteines in MDA-MB-231 and Ramos cells (Homo sapiens, UniProt Q96F86)
# Sequence (Q96F86 whole entry, the tested form may be a part): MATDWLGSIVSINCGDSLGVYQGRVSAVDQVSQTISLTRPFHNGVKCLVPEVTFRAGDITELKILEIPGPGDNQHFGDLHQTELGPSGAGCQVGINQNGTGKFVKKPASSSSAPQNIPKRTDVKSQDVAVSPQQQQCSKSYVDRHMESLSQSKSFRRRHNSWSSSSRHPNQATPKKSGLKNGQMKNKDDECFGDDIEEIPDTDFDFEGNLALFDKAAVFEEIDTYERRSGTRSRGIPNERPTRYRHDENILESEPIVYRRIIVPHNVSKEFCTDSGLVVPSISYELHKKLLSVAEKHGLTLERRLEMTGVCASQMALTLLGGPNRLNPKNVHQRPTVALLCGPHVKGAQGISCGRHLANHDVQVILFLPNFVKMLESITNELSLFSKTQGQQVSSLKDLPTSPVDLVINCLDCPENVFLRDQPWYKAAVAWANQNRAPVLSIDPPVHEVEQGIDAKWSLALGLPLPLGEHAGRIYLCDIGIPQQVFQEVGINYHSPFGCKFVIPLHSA
# procedureText: Competitive isoTOP-ABPP in situ (fragment-treated cells)
# Assay type: cell-based
# assayConditions: 200 μM, insitu, 231
quantity: isoTOP-ABPP ratio Q96F86_C413
Please reply with the number alone, leaving off any unit.

Consider the worked cases shown below.
{"compound": "O=C(CCl)NC12CC3CC(CC(C3)C1)C2", "measuredTarget": "cysteines in MDA-MB-231 and Ramos cells (Homo sapiens, UniProt Q96F86)", "numericResult": 0.8}
{"compound": "CC(C)CCOCCNC(=O)CCl", "measuredTarget": "cysteines in MDA-MB-231 and Ramos cells (Homo sapiens, UniProt Q96F86)", "numericResult": 0.7}
{"compound": "O=C(CCl)N1CCN(S(=O)(=O)c2ccccc2F)CC1", "measuredTarget": "cysteines in MDA-MB-231 and Ramos cells (Homo sapiens, UniProt Q96F86)", "numericResult": 20.0}
{"compound": "O=C(CCl)Nc1cccc2ncccc12", "measuredTarget": "cysteines in MDA-MB-231 and Ramos cells (Homo sapiens, UniProt Q96F86)", "numericResult": 20.0}
{"compound": "CC1CCc2ccccc2N1C(=O)CCl (stereo not drawn)", "measuredTarget": "cysteines in MDA-MB-231 and Ramos cells (Homo sapiens, UniProt Q96F86)", "numericResult": 20.0}

Kindly review the next compound as well.
# query: isoTOP-ABPP ratio Q96F86_C413 of entry O=C(CCl)NCCc1c[nH]c2ccccc12
1.6

* * *

# measuredTarget: UCHL3 C95 (P15374) (Homo sapiens, UniProt P15374)
# Sequence (P15374 whole entry): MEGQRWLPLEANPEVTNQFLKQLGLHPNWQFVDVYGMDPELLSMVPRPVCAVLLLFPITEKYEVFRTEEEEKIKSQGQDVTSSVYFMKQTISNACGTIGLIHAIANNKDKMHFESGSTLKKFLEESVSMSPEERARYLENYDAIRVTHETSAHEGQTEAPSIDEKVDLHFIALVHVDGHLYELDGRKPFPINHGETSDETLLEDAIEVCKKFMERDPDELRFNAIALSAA
# procedureText: Competitive isoTOP-ABPP, cell lysates
# Format: binding
# assayConditions: 500 μm in-vitro ramos_231
With a cut-off of 0.8, any isoTOP-ABPP ratio (reactivity profile), P15374_C95 strictly below it is called 1.0; any isoTOP-ABPP ratio (reactivity profile), P15374_C95 meeting it or above is called 0.0.

Solved cases below.
{"substanceSmiles": "COc1ccccc1OCCNC(=O)CCl", "measuredTarget": "UCHL3 C95 (P15374) (Homo sapiens, UniProt P15374)", "classAssignment": 0.0}
{"substanceSmiles": "O=C(CCl)N1CCC(C(O)(c2ccccc2)c2ccccc2)CC1", "measuredTarget": "UCHL3 C95 (P15374) (Homo sapiens, UniProt P15374)", "classAssignment": 0.0}

For this compound, is isoTOP-ABPP ratio (reactivity profile), P15374_C95 lower than 0.8? O=C(CCl)NC12CC3CC(CC(C3)C1)C2
0.0

For this compound, is isoTOP-ABPP ratio (reactivity profile), P15374_C95 lower than 0.8? CC(C)CCOCCNC(=O)CCl
1.0

For this compound, is isoTOP-ABPP ratio (reactivity profile), P15374_C95 lower than 0.8? O=C(CCl)N1CCN(CC(=O)N2CCOCC2)CC1
0.0

* * *

# measuredTarget: cysteines in MDA-MB-231 and Ramos cells (Homo sapiens)
# procedureText: Competitive isoTOP-ABPP in situ (fragment-treated cells)
# Assay type: cell-based
# assayConditions: 200 μM, insitu, ramos
Parameter isoTOP-ABPP ratio P27707_C9: see the listing below.
Please reply with the number alone, leaving off any unit.

{"compound": "C=CC(=O)N(Cc1cccnc1)c1cc(C(F)(F)F)cc(C(F)(F)F)c1 [compound 31]", "measuredTarget": "cysteines in MDA-MB-231 and Ramos cells (Homo sapiens)", "quantity": "isoTOP-ABPP ratio P27707_C9", "numericResult": 1.2}
{"compound": "O=C(CCl)N1CCN(CC(=O)N2CCOCC2)CC1 [compound 29]", "measuredTarget": "cysteines in MDA-MB-231 and Ramos cells (Homo sapiens)", "quantity": "isoTOP-ABPP ratio P27707_C9", "numericResult": 1.2}
{"compound": "O=C(CCl)N1CCN(S(=O)(=O)c2ccccc2F)CC1 [compound 10]", "measuredTarget": "cysteines in MDA-MB-231 and Ramos cells (Homo sapiens)", "quantity": "isoTOP-ABPP ratio P27707_C9", "numericResult": 1.7}

Kindly review the next compound as well.
# query: isoTOP-ABPP ratio P27707_C9 of entry O=C(CCl)NCCc1c[nH]c2ccccc12 [compound 13]
1.3

* * *

# measuredTarget: cysteines in MDA-MB-231 and Ramos cells (Homo sapiens, UniProt Q9Y3A3)
# Sequence (Q9Y3A3 whole entry, the tested form may be a part): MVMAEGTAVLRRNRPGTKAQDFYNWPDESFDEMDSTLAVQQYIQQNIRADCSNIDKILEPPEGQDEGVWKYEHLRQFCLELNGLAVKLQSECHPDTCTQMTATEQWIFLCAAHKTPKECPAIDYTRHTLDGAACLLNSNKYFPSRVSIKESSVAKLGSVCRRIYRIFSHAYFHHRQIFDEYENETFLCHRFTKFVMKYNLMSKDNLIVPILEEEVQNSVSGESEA
# procedureText: Competitive isoTOP-ABPP in situ (fragment-treated cells)
# Format: cell-based
# assayConditions: 200 μM, insitu, 231
quantity: isoTOP-ABPP ratio Q9Y3A3_C134
Please reply with the number alone, leaving off any unit.

{"molecule": "C=CC(=O)Nc1cc(F)c(N2CCN(C(=O)OC(C)(C)C)CC2)c(F)c1 [compound 38]", "isoTOP-ABPP ratio Q9Y3A3_C134": 1.0}

# query: isoTOP-ABPP ratio Q9Y3A3_C134 of entry CC1CCc2ccccc2N1C(=O)CCl (stereo not drawn) [compound 45]
2.3

# query: isoTOP-ABPP ratio Q9Y3A3_C134 of entry O=C(CCl)NC(=O)NC12CC3CC(CC(C3)C1)C2 [compound 12]
1.4

# query: isoTOP-ABPP ratio Q9Y3A3_C134 of entry C=CC(=O)N(Cc1cccnc1)c1cc(C(F)(F)F)cc(C(F)(F)F)c1 [compound 31]
1.0

# query: isoTOP-ABPP ratio Q9Y3A3_C134 of entry O=C(CCl)N1CCN(S(=O)(=O)c2ccccc2F)CC1 [compound 10]
1.9

# query: isoTOP-ABPP ratio Q9Y3A3_C134 of entry Cc1ccc(C=C(C#N)C(=O)NCCN2CCOCC2)cc1 [compound 41]
0.9

* * *

Parameter isoTOP-ABPP ratio Q15084_C55: see the listing below.
# measuredTarget: PDIA6 C55 (Q15084) (Homo sapiens, UniProt Q15084)
# Sequence (Q15084 20-440): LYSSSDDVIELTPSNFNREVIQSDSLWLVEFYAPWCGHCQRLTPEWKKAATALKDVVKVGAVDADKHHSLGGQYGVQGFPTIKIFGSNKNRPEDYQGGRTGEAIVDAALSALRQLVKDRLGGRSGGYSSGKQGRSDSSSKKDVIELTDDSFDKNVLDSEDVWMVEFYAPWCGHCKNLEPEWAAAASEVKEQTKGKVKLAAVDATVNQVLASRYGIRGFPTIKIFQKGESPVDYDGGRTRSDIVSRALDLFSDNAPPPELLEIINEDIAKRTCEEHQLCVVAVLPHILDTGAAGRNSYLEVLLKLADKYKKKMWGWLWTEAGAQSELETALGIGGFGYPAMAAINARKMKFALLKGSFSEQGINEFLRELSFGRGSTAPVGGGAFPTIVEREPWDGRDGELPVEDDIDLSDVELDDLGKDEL
# procedureText: Competitive isoTOP-ABPP, cell lysates
# Format: binding
# assayConditions: 500 μM, invitro, 231
Please reply with the number alone, leaving off any unit.

Consider the worked cases shown below.
{"compound": "CNS(=O)(=O)C=Cc1ccc2c(ccn2Cc2ccccc2)c1 [compound 6]", "isoTOP-ABPP ratio Q15084_C55": 1.0}
{"compound": "C=CC(=O)N(c1ccccc1)c1ccc(Br)cc1 [compound 5]", "isoTOP-ABPP ratio Q15084_C55": 0.9}
{"compound": "O=C(CCl)NC(=O)NC12CC3CC(CC(C3)C1)C2 [compound 12]", "isoTOP-ABPP ratio Q15084_C55": 3.7}

# query: isoTOP-ABPP ratio Q15084_C55 of entry C=CC(=O)N(Cc1cccnc1)c1ccc(Oc2ccccc2)c(C(F)(F)F)c1 [compound 15]
0.8

# query: isoTOP-ABPP ratio Q15084_C55 of entry O=C(CCl)N1CCN(S(=O)(=O)c2ccccc2F)CC1 [compound 10]
20.0

# query: isoTOP-ABPP ratio Q15084_C55 of entry O=C(CCl)NCCc1c[nH]c2ccccc12 [compound 13]
1.9

# query: isoTOP-ABPP ratio Q15084_C55 of entry Cn1cc(S(=O)(=O)N2CCOCC2)cc1C(=O)NC(=O)CCl [compound 11]
20.0
